biological target: UniProt Q13936; experiment: FLIPR data, CAv1.2 channel blocking (Table 6); assay type: cell-based; details: closed state, read-out: CAv1.2 IC50 Closed
Sequence (Q13936 whole entry): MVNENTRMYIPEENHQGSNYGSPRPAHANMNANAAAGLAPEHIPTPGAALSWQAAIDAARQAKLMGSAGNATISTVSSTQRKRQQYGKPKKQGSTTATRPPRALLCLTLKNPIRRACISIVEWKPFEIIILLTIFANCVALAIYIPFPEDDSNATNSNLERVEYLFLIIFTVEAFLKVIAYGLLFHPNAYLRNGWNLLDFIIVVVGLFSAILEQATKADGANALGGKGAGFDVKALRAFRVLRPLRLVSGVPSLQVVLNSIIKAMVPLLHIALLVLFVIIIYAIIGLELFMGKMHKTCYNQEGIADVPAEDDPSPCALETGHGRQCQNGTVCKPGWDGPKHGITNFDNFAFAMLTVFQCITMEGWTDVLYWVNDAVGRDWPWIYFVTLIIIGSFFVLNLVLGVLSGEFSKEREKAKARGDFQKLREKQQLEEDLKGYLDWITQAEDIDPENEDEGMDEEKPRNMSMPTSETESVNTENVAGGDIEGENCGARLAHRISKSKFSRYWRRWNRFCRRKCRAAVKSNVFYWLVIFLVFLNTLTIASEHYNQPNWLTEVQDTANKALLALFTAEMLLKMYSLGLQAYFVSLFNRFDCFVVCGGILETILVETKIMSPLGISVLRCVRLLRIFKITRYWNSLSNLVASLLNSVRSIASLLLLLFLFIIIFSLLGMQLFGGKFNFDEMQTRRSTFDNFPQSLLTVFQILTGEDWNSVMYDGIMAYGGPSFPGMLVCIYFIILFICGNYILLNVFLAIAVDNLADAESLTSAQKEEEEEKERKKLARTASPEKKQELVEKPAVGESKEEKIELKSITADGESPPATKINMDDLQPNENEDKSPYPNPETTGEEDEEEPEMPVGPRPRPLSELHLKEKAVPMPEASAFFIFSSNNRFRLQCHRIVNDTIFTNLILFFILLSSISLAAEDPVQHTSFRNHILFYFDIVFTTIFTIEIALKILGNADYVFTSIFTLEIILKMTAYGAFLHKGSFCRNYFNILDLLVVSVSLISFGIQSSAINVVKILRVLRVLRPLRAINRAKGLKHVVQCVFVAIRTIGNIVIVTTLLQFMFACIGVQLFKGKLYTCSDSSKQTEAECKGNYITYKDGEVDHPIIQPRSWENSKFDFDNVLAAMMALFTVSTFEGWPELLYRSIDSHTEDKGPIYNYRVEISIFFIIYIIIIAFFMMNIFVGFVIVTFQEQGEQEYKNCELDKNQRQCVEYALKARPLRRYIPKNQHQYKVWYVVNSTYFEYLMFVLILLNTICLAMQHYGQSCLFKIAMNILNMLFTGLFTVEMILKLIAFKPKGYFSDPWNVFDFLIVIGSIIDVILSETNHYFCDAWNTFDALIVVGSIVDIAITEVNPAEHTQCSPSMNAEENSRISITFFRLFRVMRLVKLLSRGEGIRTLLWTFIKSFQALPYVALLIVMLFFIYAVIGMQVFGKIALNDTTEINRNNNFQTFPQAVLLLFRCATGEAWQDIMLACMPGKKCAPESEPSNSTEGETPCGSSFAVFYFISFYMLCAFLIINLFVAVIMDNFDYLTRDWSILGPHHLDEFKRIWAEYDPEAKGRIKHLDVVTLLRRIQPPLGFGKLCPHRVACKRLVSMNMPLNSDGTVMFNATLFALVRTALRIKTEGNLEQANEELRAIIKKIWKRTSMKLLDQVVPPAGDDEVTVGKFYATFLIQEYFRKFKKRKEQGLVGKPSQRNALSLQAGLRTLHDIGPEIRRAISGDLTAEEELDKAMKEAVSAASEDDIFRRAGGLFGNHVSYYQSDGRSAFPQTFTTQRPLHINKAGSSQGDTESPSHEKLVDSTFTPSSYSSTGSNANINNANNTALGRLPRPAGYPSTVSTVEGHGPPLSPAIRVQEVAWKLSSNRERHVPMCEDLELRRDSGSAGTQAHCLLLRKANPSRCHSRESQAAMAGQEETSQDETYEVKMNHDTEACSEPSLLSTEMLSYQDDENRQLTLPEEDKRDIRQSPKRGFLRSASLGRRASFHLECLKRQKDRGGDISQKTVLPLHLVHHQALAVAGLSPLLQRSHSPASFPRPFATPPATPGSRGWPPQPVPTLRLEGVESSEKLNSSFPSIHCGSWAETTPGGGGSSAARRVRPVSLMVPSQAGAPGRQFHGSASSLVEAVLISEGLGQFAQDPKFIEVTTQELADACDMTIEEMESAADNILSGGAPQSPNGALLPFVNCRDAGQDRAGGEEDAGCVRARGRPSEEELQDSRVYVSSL
Sequence (P54289 25-1103 partner): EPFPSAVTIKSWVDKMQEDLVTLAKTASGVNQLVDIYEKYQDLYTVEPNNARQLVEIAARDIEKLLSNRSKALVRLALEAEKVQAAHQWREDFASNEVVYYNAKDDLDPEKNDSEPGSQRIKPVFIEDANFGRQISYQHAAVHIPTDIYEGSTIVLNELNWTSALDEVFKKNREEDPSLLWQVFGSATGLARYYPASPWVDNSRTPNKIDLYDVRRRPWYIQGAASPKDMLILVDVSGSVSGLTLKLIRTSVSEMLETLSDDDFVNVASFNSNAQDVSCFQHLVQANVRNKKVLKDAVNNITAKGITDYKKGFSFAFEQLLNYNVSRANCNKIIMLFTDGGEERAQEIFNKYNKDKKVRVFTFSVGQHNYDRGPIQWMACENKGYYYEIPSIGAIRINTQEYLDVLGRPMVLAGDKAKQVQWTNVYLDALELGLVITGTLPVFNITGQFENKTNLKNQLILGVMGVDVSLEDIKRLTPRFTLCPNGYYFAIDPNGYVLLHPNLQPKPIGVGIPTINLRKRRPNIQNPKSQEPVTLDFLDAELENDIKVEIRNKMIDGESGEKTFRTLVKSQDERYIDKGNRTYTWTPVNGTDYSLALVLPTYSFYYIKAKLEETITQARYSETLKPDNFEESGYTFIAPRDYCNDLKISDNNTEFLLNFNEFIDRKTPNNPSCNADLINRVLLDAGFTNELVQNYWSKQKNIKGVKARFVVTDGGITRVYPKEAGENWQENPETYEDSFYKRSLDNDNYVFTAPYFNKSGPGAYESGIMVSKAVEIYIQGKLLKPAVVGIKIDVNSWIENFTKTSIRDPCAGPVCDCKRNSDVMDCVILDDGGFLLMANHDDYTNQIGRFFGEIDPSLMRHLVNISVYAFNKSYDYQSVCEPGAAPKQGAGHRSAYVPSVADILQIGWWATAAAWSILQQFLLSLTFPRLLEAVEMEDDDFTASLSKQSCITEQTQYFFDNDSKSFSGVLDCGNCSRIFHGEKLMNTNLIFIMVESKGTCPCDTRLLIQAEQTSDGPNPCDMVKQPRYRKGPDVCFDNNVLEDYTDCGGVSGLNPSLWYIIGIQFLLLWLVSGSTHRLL
Sequence (Q08289 whole entry partner): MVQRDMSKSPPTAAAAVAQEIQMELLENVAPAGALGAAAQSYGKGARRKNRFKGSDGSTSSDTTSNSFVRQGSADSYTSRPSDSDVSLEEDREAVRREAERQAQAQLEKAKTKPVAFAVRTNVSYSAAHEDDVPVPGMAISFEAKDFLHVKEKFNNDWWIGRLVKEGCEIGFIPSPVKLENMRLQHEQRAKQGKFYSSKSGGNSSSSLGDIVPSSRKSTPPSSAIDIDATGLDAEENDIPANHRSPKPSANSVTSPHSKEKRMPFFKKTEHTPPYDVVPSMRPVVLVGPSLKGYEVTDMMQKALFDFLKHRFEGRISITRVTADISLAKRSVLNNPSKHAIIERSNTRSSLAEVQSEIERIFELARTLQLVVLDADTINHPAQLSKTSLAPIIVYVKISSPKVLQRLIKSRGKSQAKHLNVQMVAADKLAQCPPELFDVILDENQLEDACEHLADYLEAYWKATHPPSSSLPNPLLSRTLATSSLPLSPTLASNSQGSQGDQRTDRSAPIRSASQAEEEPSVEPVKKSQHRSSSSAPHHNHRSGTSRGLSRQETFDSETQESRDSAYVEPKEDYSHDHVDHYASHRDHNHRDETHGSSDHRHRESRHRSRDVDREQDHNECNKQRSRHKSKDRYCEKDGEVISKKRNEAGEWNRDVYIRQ
assay_readout: IC50

molecule	result
CC(C)([C@H]1C[C@@H](NC(=O)c2ncc(C(F)(F)F)cn2)C1)S(=O)(=O)c1cccc(C(F)(F)F)c1 [Compound 583]	≥ 10 µM
CC(C)S(=O)(=O)c1cc(C(F)(F)F)cnc1C(=O)N[C@H]1C[C@H](C(C)(C)S(=O)(=O)c2cc(F)cc(C(F)(F)F)c2)C1 [Compound 593]	≥ 10 µM

Shifting focus to the molecule that follows.
Return reported IC50; argument: CC(C)([C@H]1C[C@H](NC(=O)c2ccc(C(F)(F)F)cc2S(C)(=O)=O)C1)S(=O)(=O)c1cccc(OC(F)(F)F)c1 [Compound 636]
≥ 10 µM

---

target: human α1G T-type channels (Homo sapiens, UniProt O43497); assay: T-type calcium channel block, whole cell patch clamp, α1G; conditions: HEK cells stably expressing human α1G; mainly non-inactivated protocol; values above 10,000 nM represented as 10000
assay_readout: pIC50
Value format note: pIC50 is -log10 of concentration (mol/L); just state the number.

Illustrative cases are given below, each with its answer.
compound	measured_on	pIC50
O=C(NC[C@H]1C[C@H](S(=O)(=O)c2cccc(C(F)(F)F)c2)C1)c1ccc(C(F)(F)F)cn1	human α1G T-type channels (Homo sapiens, UniProt O43497)	5.08
CC(C)(C)OC(=O)N[C@H]1CC[C@H](S(=O)(=O)c2cccc(C(F)(F)F)c2)CC1	human α1G T-type channels (Homo sapiens, UniProt O43497)	5.16

Notebook entry, human α1G T-type channels (Homo sapiens, UniProt O43497) assay: pIC50 of CC1(NC(=O)c2ccc(F)c(Cl)c2)CCC(S(=O)(=O)c2cccc(C(F)(F)F)c2)CC1 (stereo not drawn) = ?
5.20

---

target: T-type calcium channel (Homo sapiens); assay: T-type channel blocking, FLIPR data (Table 6); format: cell-based; details: CAv3.2, ratio closed/inactivated IC50
assay_readout: CAv3.2 IC50 Ratio closed/inact.

molecule	measured_on	CAv3.2 IC50 Ratio closed/inact.
O=C(NC[C@H]1C[C@H](S(=O)(=O)c2cc(F)cc(C(F)(F)F)c2)C1)c1ccnc(C(F)(F)F)n1 [Compound 710]	T-type calcium channel (Homo sapiens)	1

I have this molecule here, CC(C)([C@H]1C[C@H](NC(=O)c2ccc(Cl)c(F)c2)C1)S(=O)(=O)c1cccc(OC(F)(F)F)c1 [Compound 633] , and I need its recorded CAv3.2 IC50 Ratio closed/inact..
1.1

For the molecule CC(C)([C@H]1C[C@H](NC(=O)c2ccc(S(C)(=O)=O)cc2Cl)C1)S(=O)(=O)c1cccc(C(F)(F)F)c1 [Compound 680] , what CAv3.2 IC50 Ratio closed/inact. is on record?
1

Would you kindly share the measured CAv3.2 IC50 Ratio closed/inact. for CNC1(CC(=O)N[C@H]2C[C@@H](C(C)(C)S(=O)(=O)c3cc(F)cc(C(F)(F)F)c3)C2)CCCCC1 [Compound 658] ?
1

What value of CAv3.2 IC50 Ratio closed/inact. has been recorded for this entry: CC(C)([C@H]1C[C@@H](NS(=O)(=O)c2ccc(Cl)c(F)c2)C1)S(=O)(=O)c1cccc(C(F)(F)F)c1 [Compound 626]
1.5

I am curious: what CAv3.2 IC50 Ratio closed/inact. value has been reported for CC(C)(C[C@H]1C[C@@H](NC(=O)c2cnc(C(F)(F)F)nc2)C1)S(=O)(=O)c1cccc(C(F)(F)F)c1 [Compound 734] ?
3.8

Query (molecule): CC(C)([C@H]1C[C@H](NC(=O)c2ccc(C(F)(F)F)cn2)C1)S(=O)(=O)c1cccc(C(F)(F)F)c1 [Compound 676] ; field requested: CAv3.2 IC50 Ratio closed/inact.
1.1

// query CAv3.2 IC50 Ratio closed/inact. value for entry CC(C)([C@H]1C[C@H](NS(=O)(=O)c2ccc(Cl)c(F)c2)C1)S(=O)(=O)c1cccc(C(F)(F)F)c1 [Compound 665]
1.1

Would you kindly share the measured CAv3.2 IC50 Ratio closed/inact. for CC(C)([C@H]1C[C@@H](NS(=O)(=O)c2ccc(C(F)(F)F)cc2)C1)S(=O)(=O)c1cccc(C(F)(F)F)c1 [Compound 624] ?
1.3
